System: K4 kissing-loop RNA reporter
Experiment: apparent KD of K4 kissing-loop reporter; higher = weaker reporter binding
Conditions: Eterna round: R107; input ligand: FMN 200 uM
Mark n for apparent KD of K4 kissing-loop reporter values under 200 nM, and y for everything at or above.

- GUCUCGAGUGAUGUUCGGGUCGAUUGGGAAGGAGCGCCCGGAAGGGCAGGUAGGUCGCCCGGACCGCGCGGGCAACCGCGCGGCC [#2 Same State - Arginine A Attempt #11 (HarryS)]: n

Could you please find out whether ACGUCCGGAUUGAUCGUGGGCAUGGUCGAUACCAGUAGUUUAAUCUACCCUUGGCAGCGACAUGAGUGAUGUUCAUGUGCGAUGA [KL-XTheo-A7 #analogue] has apparent KD of K4 kissing-loop reporter that meets 200 nM or exceeds it?
n

Could you please find out whether AAGAGGUAGGCGGCCGCCACUAGUUGUGAACACAUACAAGCCAGUGAUGUUGGUAUGGUGGGCGGUAGGACCGGGCCUACCUGAA [Exclusion - Tryptophan B (Freestyle 17)] has apparent KD of K4 kissing-loop reporter that meets 200 nM or exceeds it?
y

Could you please find out whether CUCAGAAAGACUGUCCAAGUGAUGUUUGGACGAGGACCGGUACGGCCGCCACUCGCUGUUGCGAAUGUUAAGGUACGAGUCGCGG [theeternabot_exclusion_KL_Trp_A_30] has apparent KD of K4 kissing-loop reporter that meets 200 nM or exceeds it?
n

Could you please find out whether AGUGAUGUAUGGCGGUUUGUCACUUAAAAUCAGGAUAUAUAAACAAAUAGAAGGGAUGGCGGAGUGAUGUUCCGCCGGCCGCCAU [FMN A Exl V1] has apparent KD of K4 kissing-loop reporter that meets 200 nM or exceeds it?
n

----------
Catalogue of apparent KD of MS2 coat protein readings, one per entry.
System: MS2 coat protein
Test: apparent KD of MS2 coat protein; higher = weaker reporter binding
Details: Eterna round: R107; input ligand: theophylline 20 uM

Completed entries (count: 2):
- AGCAACAAGUCGGCCGCCACUCAAUAAACAUGAGGAUCACCCAUGUAAAUAACAUGAUAAUAAUAGAGGACCGGGACAGUUGCAU [JR_SSTryptoB_Sub015]: 17.1 nM
- GCUGCCGUCGGUGAAAACUCCCAUGCAGAUACCAGCGCAUUCCGCCGCCCUUGGCAGCUGCAUACAUGAGGAUCACCCAUGUGUU [theeternabot_exclusion_MS2_Theo_A_48]: 161 nM

// moving on: another record for apparent KD of MS2 coat protein
Which value of apparent KD of MS2 coat protein has been reported for AACAUGAGGAUCACCCAUGUCUGAACUGAAGGAGCGCUAAAUAAGGCAGGUAGGUCGCGGAAUUUUGUGUGCAUAUGCAUAUGGG [9.I] in the records?
32.6 nM

----------
Catalogue of apparent KD of MS2 coat protein readings, one per entry.
Test system: MS2 coat protein
Assay: apparent KD of MS2 coat protein; higher = weaker reporter binding
Settings: Eterna round: R107; input ligand: theophylline 20 uM
The reply should be a number in µM, with the unit left off.

Completed entries (count: 8):
* AGAUUCGACACGGCCGCCACUUUCAGUGGCUGGUGUCAUGGUGCACAUGAGGAUCACCCAUGUGGAAGGACCGGGUGUUGAGUCU [XTryp B #26] | 0.0218
* UAAUAAAUAAGUGAUACCAGCGAGAAAACAUGAGGAUCACCCAUGUUCGCCCAUGUUAAGCGCCCUUGGCAGCACAAAUAUAAAA [AstrosExyTheB#1] | 0.0427
* GGGACACCGAGAAGGAGCGCAUCCAAACCACACAUGAGGAUCACCCAUGUAUAAAUAUGCAUGCAGGUAGGUCGCUCGGCGUCUC [Orordionbi] | 0.112
* GGUGGGACUUGUGAUACCAGCCCAAUUCGAAUCGAAUUGCACAUGAGGAUCACCCAUGUCGGCCCUUGGCAGCAUGAGUAUUUAU [Ricerixe] | 0.149
* AUGCAUAGCGGAAGGAGCGCAAUAGAAUGACAUGAGGAUCACCCAUGUGUGUGAUGUGGAUUGCAGGUAGGUCGCCGAGUGGUAU [Exclusion - Arginine B (Freestyle 3)] | 0.0575
* GGACUAACCUGAAGGAGCGACACGCAGAAACUGCAAAUUCCUCCACACGAGGAUCACCCGUGUCAGGUAGGUCGCAGGUUAGUCG [ArgBX 28] | 0.0257
* ACAUGAGGAUCACCCAUGUCUGCCACUGAUACCAGCGGAAGCCCACGCCCUUGGCAGCAGAACAUGAGGAUCACCCAUGUAGGCU [Same State Theophylline A GF28] | 0.186
* AAAUAAAUACAUGAGGAUCACCCAUGUGAAGGAGCGCCCGUUAGGGCAGGUAGGUCGCGCAUGAAUAACUCCGUGCAAAAGCACA [ArgEX 19 #OpenEnded] | 0.0373

Which value of apparent KD of MS2 coat protein has been reported for GCAUCCUAGUCGGCCGCCACUGCAUCACCAGUGGCAGGUGAUCAACAUGAGGAUCACCCAUGUAGCAGGACCGGGACUAGGAUGC [(Trp1)-(TM)''-(TM)'-(Ms2)-(Trp2)_Design4] in the records?
0.163

Which value of apparent KD of MS2 coat protein has been reported for GCGGUACGUACUGAUACCAGAGACAUGAGGAUCACCCAUGUCCCAUGGUCAUGCCUCAGACUCCCUUGGCAGCAGGAUAAGUGCG [Exclusion Theophylline B GF3] in the records?
0.0171

Which value of apparent KD of MS2 coat protein has been reported for AUAUAUGACAGAAGGAGCGCCAUGAACACACAUGAGGAUCACCCAUGUUUUUUUUGUGUUUGGCAGGUAGGUCGCUGACAUGAAA [Same State Arginine B 3] in the records?
0.0177

Which value of apparent KD of MS2 coat protein has been reported for UACCGAUGAAGAAGGAGCGUACGUGGUUCACAUGAGGAUCACCCAUGUGCUUAUUGCUAGGUACAGGUAGGUCGCUUCAUCGGUA [SSAB NP+V+V2 #21] in the records?
0.021

----------
System: MS2 coat protein
Experiment: apparent KD of MS2 coat protein; designed switch direction (-1 OFF switch, 1 ON switch): -1; higher = weaker reporter binding
Settings: input ligand: none
Catalogue of apparent KD of MS2 coat protein readings, one per entry.
The reply should be a number in µM, with the unit left off.

* AAUACAAGCUAUUGAUCCCACAUGAGGAUCACCCAUGUAGGUGGCCGUGAGACCACCUUUACGAUAGCUCGUCUUAU [Sensor-V1 #51] (Eterna round: R97, puzzle: Sensor, turn-off variant 1) | 0.274

Which value of apparent KD of MS2 coat protein has been reported for AGAGUGCUGCGAGGAUAUACAUGAGGAUCACCCAUGUUUUCCUGUGAGGCAUAGCCUCACAGGAUGUAGAAGGCGCAGUACUCA [Mat - Exclusion NG 2 - Mod of JL - D29] (Eterna round: R96, puzzle: Exclusion NG 2) in the records?
0.0137

----------
Test system: K4 kissing-loop RNA reporter
Assay: apparent KD of K4 kissing-loop reporter; higher = weaker reporter binding
Settings: Eterna round: R107; input ligand: arginine 13.2 mM
readout: apparent KD of K4 kissing-loop reporter (nM)
The reply should be a number in nM, with the unit left off.

Report apparent KD of K4 kissing-loop reporter for UAAUAAAUUCCAGCGAUAUCGCUCUUCGAAGGAGCGGGCGAAGGUCCAGGUAGGUCGCGGAGAGUGAUGUUCUUUGCGGCGCUGG [whbob_Ex_Arginine_A_2t135] tested on K4 kissing-loop RNA reporter.
225

Report apparent KD of K4 kissing-loop reporter for UAUUAAUUGACGGCCGCCACUAUGGUGAUUUAUUUGUUUGAGUGAUGUUUUGAUGUUUGAUUUUGUAGGACCGGGUUAUGUGUUA [pokcmullin] tested on K4 kissing-loop RNA reporter.
738

Report apparent KD of K4 kissing-loop reporter for UAAUAUAACCGAAGGAGCGCGUGGGCGCAGUGAUGUUGCGCCCGACAUCACUUCAACUAAACGCAGGUAGGUCGCGGUAAUAAUA [Arginine B (Excl) V1] tested on K4 kissing-loop RNA reporter.
83.1

Report apparent KD of K4 kissing-loop reporter for AGUGUUAGGUUAGAUACCAGCCGUUCGUGAAUAAUCCUCGAACCGCCAGUGAUGUUGGCAGGCCCUUGGCAGCUAACAGAACAGA [Maxeusla] tested on K4 kissing-loop RNA reporter.
216

Report apparent KD of K4 kissing-loop reporter for UGAUUGCCAGUGAUGUUGGCAGUGACUGAAGGAGCGCGUGAAAACGCAGGUAGGUCGCAGUUGAGUGCCAAUUGAUCGAAAGAUC [KL-XArg-A5] tested on K4 kissing-loop RNA reporter.
275

Report apparent KD of K4 kissing-loop reporter for GCCUAGCAGGGAAGGAGCGGCAUAAGCAUAGAUAAUAUGCAGUUAGUGAUGUUAAUACUAUGCCAGGUAGGUCGCCCUGCUAGGC [KL-SSArg B7] tested on K4 kissing-loop RNA reporter.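 Note: bound reporter read as fluorescence of individual clusters on recovered sequencing chips by microscopy, with normalized cluster intensities fitted with a binding model.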
457
